system: MM1.S; test: Antiproliferative activity against human MM1.S cells assessed as inhibition of cell proliferation after 72 hrs by MTS assay; format: functional, cell-based
recordedEndpoint: pIC50
Answers are plain numbers, as −log10 of the molar value.

[
  {
    "smilesRecord": "COc1ccc(C[C@H](NC(=O)[C@@H](C)NC(=O)N2CCC[C@@H](OC)C2)C(=O)N[C@@H](Cc2ccccc2)C(=O)[C@@]2(C)CO2)cc1",
    "recordedEndpoint": "pIC50",
    "reportedResult": 6.66
  },
  {
    "smilesRecord": "COc1ccc(C[C@H](NC(=O)[C@@H](C)NC(=O)N2CCC(OC)CC2)C(=O)N[C@@H](Cc2ccccc2)C(=O)[C@@]2(C)CO2)cc1",
    "recordedEndpoint": "pIC50",
    "reportedResult": 5.75
  },
  {
    "smilesRecord": "C[C@H](NC(=O)N1CCC(NC(=O)c2nccs2)CC1)C(=O)N[C@@H](Cc1c[nH]c2ccccc12)C(=O)N[C@@H](Cc1ccccc1)C(=O)[C@@]1(C)CO1",
    "recordedEndpoint": "pIC50",
    "reportedResult": 6.96
  }
]

Now examine the next entry.
## Input Any idea what pIC50 was measured for `COc1ccc(C[C@H](NC(=O)[C@@H](C)NC(=O)N2CC[C@H](OC)C2)C(=O)N[C@@H](Cc2ccccc2)C(=O)[C@@]2(C)CO2)cc1` ?
## Output 5.86

---

Can you tell me pIC50 for the items I'm about to list?
Molecular target: Proteasome subunit beta type-8 (Homo sapiens, UniProt P28062)
Sequence (P28062 whole entry): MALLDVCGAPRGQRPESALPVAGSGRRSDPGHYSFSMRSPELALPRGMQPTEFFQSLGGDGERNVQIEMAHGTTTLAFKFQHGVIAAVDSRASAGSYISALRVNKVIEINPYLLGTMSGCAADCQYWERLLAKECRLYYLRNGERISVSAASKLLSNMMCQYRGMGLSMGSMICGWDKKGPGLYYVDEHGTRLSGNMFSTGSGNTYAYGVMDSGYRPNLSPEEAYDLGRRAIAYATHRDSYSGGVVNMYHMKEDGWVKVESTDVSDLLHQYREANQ
Test: Inhibition of human proteasome subunit beta-5i chymotrypsin like activity using SUC-ANW-AMC as flurogenic substrate preincubated for 15 mins followed by substrate addition and measured after 1 hr by fluorescence assay
Answers are plain numbers, as −log10 of the molar value.

[
  {
    "smilesRecord": "COc1ccc(C[C@H](NC(=O)[C@H](C)NC(=O)N2CCC(NC(=O)c3nccs3)CC2)C(=O)N[C@@H](CC2CCCCC2)C(=O)[C@@]2(C)CO2)cc1",
    "pIC50": 6.89
  },
  {
    "smilesRecord": "COc1ccc(C[C@H](NC(=O)[C@@H](C)NC(=O)N2CC[C@H](OC)C2)C(=O)N[C@@H](Cc2ccccc2)C(=O)[C@@]2(C)CO2)cc1",
    "pIC50": 7.60
  }
]

## Input Any idea what pIC50 was measured for `COc1ccc(C[C@H](NC(=O)[C@@H](C)NC(=O)N2CCc3ccccc3C2)C(=O)N[C@@H](Cc2ccccc2)C(=O)[C@@]2(C)CO2)cc1` ?
## Output 7.09

---

Can you tell me IC50 for the items I'm about to list?
Target: Proteasome Macropain subunit MB1 (Homo sapiens, UniProt P28074)
Sequence (P28074 whole entry): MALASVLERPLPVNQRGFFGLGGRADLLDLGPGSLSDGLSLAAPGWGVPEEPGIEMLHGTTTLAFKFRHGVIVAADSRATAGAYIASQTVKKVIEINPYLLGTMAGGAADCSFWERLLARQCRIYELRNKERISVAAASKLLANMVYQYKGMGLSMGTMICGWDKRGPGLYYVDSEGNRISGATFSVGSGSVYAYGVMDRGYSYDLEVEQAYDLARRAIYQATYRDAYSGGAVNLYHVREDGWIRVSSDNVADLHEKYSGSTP
Experiment: Inhibition of chymotrypsin-like activity of human 20s proteasome beta 5c subunit using suc-WLA-AMC as flurogenic substrate preincubated for 15 mins followed by substrate addition and measured after 1 hr by fluorescence assay
One number for each entry, in nM.

[
  {
    "compound": "COc1ccc(C[C@H](NC(=O)[C@H](C)NC(=O)N2CCCC2)C(=O)N[C@@H](Cc2ccccc2)C(=O)[C@@]2(C)CO2)cc1",
    "experimentalSystem": "Proteasome Macropain subunit MB1 (Homo sapiens, UniProt P28074)",
    "IC50 [nM]": 498
  },
  {
    "compound": "COc1ccc(C[C@H](NC(=O)[C@@H](C)NC(=O)N2CCC(NC(=O)c3nccs3)CC2)C(=O)N[C@@H](CC2CCCCC2)C(=O)[C@@]2(C)CO2)cc1",
    "experimentalSystem": "Proteasome Macropain subunit MB1 (Homo sapiens, UniProt P28074)",
    "IC50 [nM]": 2710
  },
  {
    "compound": "COc1ccc(C[C@H](NC(=O)[C@H](C)NC(=O)N2CCc3ccccc3C2)C(=O)N[C@@H](Cc2ccccc2)C(=O)[C@@]2(C)CO2)cc1",
    "experimentalSystem": "Proteasome Macropain subunit MB1 (Homo sapiens, UniProt P28074)",
    "IC50 [nM]": 69.7
  },
  {
    "compound": "C[C@H](NC(=O)N1CCC(NC(=O)c2nccs2)CC1)C(=O)N[C@@H](Cc1c[nH]c2ccccc12)C(=O)N[C@@H](CC1CCCCC1)C(=O)[C@@]1(C)CO1",
    "experimentalSystem": "Proteasome Macropain subunit MB1 (Homo sapiens, UniProt P28074)",
    "IC50 [nM]": 216
  },
  {
    "compound": "C[C@@H](NC(=O)N1CCC(NC(=O)c2nccs2)CC1)C(=O)N[C@@H](Cc1c[nH]c2ccccc12)C(=O)N[C@@H](Cc1ccccc1)C(=O)[C@@]1(C)CO1",
    "experimentalSystem": "Proteasome Macropain subunit MB1 (Homo sapiens, UniProt P28074)",
    "IC50 [nM]": 468
  }
]

Quick request: IC50 for each listed item, please.
1. COc1ccc(C[C@H](NC(=O)[C@@H](C)NC(=O)N2CC[C@H](OC)C2)C(=O)N[C@@H](Cc2ccccc2)C(=O)[C@@]2(C)CO2)cc1
2. COc1ccc(C[C@H](NC(=O)[C@@H](C)NC(=O)N2CCCC2)C(=O)N[C@@H](Cc2ccccc2)C(=O)[C@@]2(C)CO2)cc1
3. COc1ccc(C[C@H](NC(=O)[C@@H](C)NC(=O)n2c3ccccc3c3ccccc32)C(=O)N[C@@H](Cc2ccccc2)C(=O)[C@@]2(C)CO2)cc1
4. COc1ccc(C[C@H](NC(=O)[C@H](C)NC(=O)N2CCC(NC(=O)c3nccs3)CC2)C(=O)N[C@@H](CC2CCCCC2)C(=O)[C@@]2(C)CO2)cc1
5. COc1ccc(C[C@H](NC(=O)[C@@H](C)NC(=O)N2CCc3ccccc3C2)C(=O)N[C@@H](Cc2ccccc2)C(=O)[C@@]2(C)CO2)cc1
6. COc1ccc(C[C@H](NC(=O)[C@@H](C)NC(=O)N2CCC(OC)C2)C(=O)N[C@@H](Cc2ccccc2)C(=O)[C@@]2(C)CO2)cc1 (some centres not stated)

## Output
[606, 1330, 71.7, 245, 959, 1110]

Quick request: IC50 for each listed item, please.
1. COc1ccc(C[C@H](NC(=O)[C@H](C)NC(=O)n2c3ccccc3c3ccccc32)C(=O)N[C@@H](Cc2ccccc2)C(=O)[C@@]2(C)CO2)cc1
2. COc1ccc(C[C@H](NC(=O)[C@@H](C)NC(=O)N2CCC[C@@H](OC)C2)C(=O)N[C@@H](Cc2ccccc2)C(=O)[C@@]2(C)CO2)cc1

## Output
1: 35.5; 2: 244

Quick request: IC50 for each listed item, please.
1. C[C@@H](NC(=O)N1CCC(NC(=O)c2nccs2)CC1)C(=O)N[C@@H](Cc1c[nH]c2ccccc12)C(=O)N[C@@H](CC1CCCCC1)C(=O)[C@@]1(C)CO1
2. COc1ccc(C[C@H](NC(=O)[C@H](C)NC(=O)N2CCC(OC)CC2)C(=O)N[C@@H](Cc2ccccc2)C(=O)[C@@]2(C)CO2)cc1
3. COc1ccc(C[C@H](NC(=O)[C@@H](C)NC(=O)N2CCC[C@H](OC)C2)C(=O)N[C@@H](Cc2ccccc2)C(=O)[C@@]2(C)CO2)cc1
4. C[C@H](NC(=O)N1CCC(NC(=O)c2nccs2)CC1)C(=O)N[C@@H](Cc1c[nH]c2ccccc12)C(=O)N[C@@H](Cc1ccccc1)C(=O)[C@@]1(C)CO1

## Output
[1080, 74, 163, 25.6]

---

molecular target: Proteasome subunit beta type-8 (Homo sapiens, UniProt P28062); assay: Inhibition of human proteasome subunit beta-5i chymotrypsin like activity using SUC-ANW-AMC as flurogenic substrate preincubated for 15 mins followed by substrate addition and measured after 1 hr by fluorescence assay
Can you tell me log10 of IC50 for the items I'm about to list?
Short version: log10 scale, IC50, nM.

[
  {
    "molecule": "COc1ccc(C[C@H](NC(=O)[C@@H](C)NC(=O)n2c3ccccc3c3ccccc32)C(=O)N[C@@H](Cc2ccccc2)C(=O)[C@@]2(C)CO2)cc1",
    "reportedResult": 1.58
  }
]

Quick request: log10 of IC50 for each listed item, please.
1. COc1ccc(C[C@H](NC(=O)[C@@H](C)NC(=O)N2CCC(OC)C2)C(=O)N[C@@H](Cc2ccccc2)C(=O)[C@@]2(C)CO2)cc1 (stereo partly specified)
2. COc1ccc(C[C@H](NC(=O)[C@@H](C)NC(=O)N2CCC(OC)CC2)C(=O)N[C@@H](Cc2ccccc2)C(=O)[C@@]2(C)CO2)cc1
3. COc1ccc(C[C@H](NC(=O)[C@@H](C)NC(=O)N2CCCC2)C(=O)N[C@@H](Cc2ccccc2)C(=O)[C@@]2(C)CO2)cc1
4. COc1ccc(C[C@H](NC(=O)[C@H](C)NC(=O)N2CCC(OC)CC2)C(=O)N[C@@H](Cc2ccccc2)C(=O)[C@@]2(C)CO2)cc1
5. C[C@@H](NC(=O)N1CCC(NC(=O)c2nccs2)CC1)C(=O)N[C@@H](Cc1c[nH]c2ccccc12)C(=O)N[C@@H](Cc1ccccc1)C(=O)[C@@]1(C)CO1
6. COc1ccc(C[C@H](NC(=O)[C@@H](C)NC(=O)N2CCC[C@@H](OC)C2)C(=O)N[C@@H](Cc2ccccc2)C(=O)[C@@]2(C)CO2)cc1
7. COc1ccc(C[C@H](NC(=O)[C@H](C)NC(=O)n2c3ccccc3c3ccccc32)C(=O)N[C@@H](Cc2ccccc2)C(=O)[C@@]2(C)CO2)cc1

## Output
[1.65, 1.41, 1.80, 1.28, 2.51, 1.48, 1.79]

Quick request: log10 of IC50 for each listed item, please.
1. COc1ccc(C[C@H](NC(=O)[C@@H](C)NC(=O)N2CCC(NC(=O)c3nccs3)CC2)C(=O)N[C@@H](CC2CCCCC2)C(=O)[C@@]2(C)CO2)cc1
2. COc1ccc(C[C@H](NC(=O)[C@@H](C)NC(=O)N2CC[C@@H](OC)C2)C(=O)N[C@@H](Cc2ccccc2)C(=O)[C@@]2(C)CO2)cc1
3. C[C@H](NC(=O)N1CCC(NC(=O)c2nccs2)CC1)C(=O)N[C@@H](Cc1c[nH]c2ccccc12)C(=O)N[C@@H](CC1CCCCC1)C(=O)[C@@]1(C)CO1

## Output
1. 2.86
2. 1.82
3. 2.39
